target: human Programmed Death-1 (PD-1) expressed on the cell surface (human, UniProt Q15116 25-288); assay: cell-based or functional assay; note: test concentration or dose not given here
Sequence (Q15116 25-288): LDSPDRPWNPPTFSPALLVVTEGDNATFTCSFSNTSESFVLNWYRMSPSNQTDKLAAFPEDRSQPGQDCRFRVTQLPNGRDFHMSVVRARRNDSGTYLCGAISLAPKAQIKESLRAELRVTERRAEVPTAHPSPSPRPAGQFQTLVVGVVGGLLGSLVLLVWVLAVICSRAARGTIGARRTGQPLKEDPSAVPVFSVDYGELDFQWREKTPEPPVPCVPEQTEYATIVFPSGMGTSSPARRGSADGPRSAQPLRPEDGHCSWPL
So I've got a bunch of binders here, and I need their CD8 TNFα % positive values.
Please give a number only; it is taken to be in % positive.

Provide one value: measured CD8 TNFα % positive of 100413_E1VH9_100414_E1VK5 (antibody, V domains shown, Mouse variable regions; cloned into pFUSE-CHIg-mG1 (murine IgG1 Fc), expressed in HEK293) VH: EVQLQESGPSLVQPSQSLSITCTVSGFSLTSYGVHWVRQSPGKGLEWLGVIWRGGNTDYNAAFMSRLSITKDNSKSQVFFKMNSLQADDTAIYYCAASMIGGYWGQGTTLTVSS VL: DIVLTQTPLSLPVSLGDQASISCRSSQSIVHSNGNTYLEWYLQKPGQSPKLLIYKVSNRFSGVPDRFSGSGSGTNFTLKISRVEAEDLGVYYCFQGSHVPLTFGAGTKLELK
11.1

Provide one value: measured CD8 TNFα % positive of 100388_D4VH3_100389_D4VK5 (antibody, V domains shown, Mouse variable regions; cloned into pFUSE-CHIg-mG1 (murine IgG1 Fc), expressed in HEK293) VH: EVQLQESGAELVRPGASVTLSCKASGYTFTDYEMHWVKQTPVHGLEWIGVIDPGTGGTAYNQKFKVKALLTADKSSNTAYMELRSLTSEDSAVYYCTSEKFGSNYYFDYWGQGTTLTVSS VL: DIVITQTPLSLPVSLGDQASISCRSSQTIVHSDGNTYLEWYLQKPGQSPKLLIYKVSNRFSGVPDRFSGSGSGTDFTLKISRVEAEDLGVYYCFQGSHVPLTFGAGTKLEIK
8.56

Provide one value: measured CD8 TNFα % positive of 100246_A10VH1_100247_A10VK3 (antibody, V domains shown, Mouse variable regions; cloned into pFUSE-CHIg-mG1 (murine IgG1 Fc), expressed in HEK293) VH: EVQLQESGPGLVKPSQSLSLTCTVTGYSITSDYAWNWIRQFPGNKLEWMGYITYSGSPTYNPSLKSQFSITRDTSKNQFFLQLNSLTTEDTATYYCARGLGGHYFDYWGQGTTLTVSS VL: DIVLTQSPDTLSVTPGDRVSLSCRASQSISDYLHWYQQKSHESPRLLIKYASQSISGIPSRFSGSGSGSDFTLSINSVEPEDVGVYYCQNGHSYPYTFGGGTKLELK
14.9

Provide one value: measured CD8 TNFα % positive of 100244_C8VH3_100245_C8VK5 (antibody, V domains shown, Mouse variable regions; cloned into pFUSE-CHIg-mG1 (murine IgG1 Fc), expressed in HEK293) VH: EVQLQESGPELVRPGASVKMSCKASGYTFTSYWMHWVKQRPGQGLEWIGMIDPSNSETSLNQKFKDKATLNVDKSTNTAYMQLSSLTSEDSAVYYCARSRGNYAYEMDYWGQGTSVTVSS VL: DIVITQTTAIMSASPGEKVTLTCSASSSVSSNYLYWYQQRPGSSPKLWIYSTSNLASGVPARFSGSGSGTSYSLTISSMEAEDAASYFCHQWSSYPPTFGSGTKLEIK
14.5
